- Tested on: RPMI-8226 leukemia
- Assay Details: NCI tumour cell line growth inhibition, 48 h; in the data active = GI50 below about 0.43 µM; inactive = the rest
# valid calls are 1 = active, -1 = inactive; nothing else

CCN1CCN(CC(=O)N2c3cccc4cccc(c34)N(C(=O)CN3CCN(CC)CC3)C2c2cn(-c3ccccc3)nc2-c2cccc([N+](=O)[O-])c2)CC1; -1
Cc1ncc(C(=O)Nc2ccc(CN3CCN(C)CC3)c(C(F)(F)F)c2)cc1C#Cc1cnc(N)cc1C#N; 1
Cc1cnc(C(=O)NNc2nc3sc4c(c3c(=O)n2C)C(C)CCC4)cn1 (centres undefined); 1

Qu. Give the logged outcome of this assay for the following compound: COC(C)(C)C/C=C/C(C)=C/C=C/C(C)=C\C=C\C(C)=C\C=C\C=C(C)\C=C\C=C(C)\C=C\C=C(C)\C=C\CC(C)(C)OC
Ans. -1
